Assay: Cytotoxicity against human vinblastine-resistant KBV1 cells after 24 hrs by MTT assay
Format: functional, cell-based
Details: KB-V1, 24 h
measured metric: IC50 (µM)
Report only the number, with the unit µM understood.

Consider the worked cases shown below.
Prompt line: Quick one: IC50 of `CC/C=C\C/C=C\C/C=C\CCCCCCCC(=O)N/N=C(\CO)[C@]1(O)Cc2c(O)c3c(c(O)c2[C@@H](O[C@H]2C[C@H](N)[C@H](O)[C@H](C)O2)C1)C(=O)c1c(OC)cccc1C3=O.Cl` ?
Response line: 40.8

Prompt line: What does the data say about its IC50? Entry: COc1cccc2c1C(=O)c1c(O)c3c(c(O)c1C2=O)C[C@@](O)(C(=O)CO)C[C@@H]3O[C@H]1C[C@H](N)[C@H](O)[C@H](C)O1.Cl [DOXORUBICIN HYDROCHLORIDE]
Response line: 59.9

Prompt line: Given the compound `COc1cccc2c1C(=O)c1c(O)c3c(c(O)c1C2=O)C[C@@](O)(/C(CO)=N/NC(=O)CCCCCCCCCCC(=O)O[C@@H]1C[C@H](C)CC[C@H]1C(C)C)C[C@@H]3O[C@H]1C[C@H](N)[C@H](O)[C@H](C)O1.Cl` , what is its reported IC50?
Response line: 30.5

***
Prompt line: Recorded IC50 of `COc1cccc2c1C(=O)c1c(O)c3c(c(O)c1C2=O)C[C@@](O)(/C(CO)=N/NC(=O)CCCCCCCCCCC(=O)O[C@H]1C[C@H]2CC[C@]1(C)C2(C)C)C[C@@H]3O[C@H]1C[C@H](N)[C@H](O)[C@H](C)O1.Cl` , please.
Response line: 68.8

Prompt line: Reported IC50 for `CCCCC/C=C\C/C=C\CCCCCCCC(=O)N/N=C(\CO)[C@]1(O)Cc2c(O)c3c(c(O)c2[C@@H](O[C@H]2C[C@H](N)[C@H](O)[C@H](C)O2)C1)C(=O)c1c(OC)cccc1C3=O.Cl` : what is it?
Response line: 29.6

====

Activity listing for selected compounds.
System: 518A2
Experiment: Induction of apoptosis in human 518A2 cells assessed as appearance of intact mitochondria in cytosol at 5 uM after 6 hrs using JC1 dye relative to control
Type: functional
# number then unit; no other words

Prompt line: Requested field: Activity. Item: `COc1cccc2c1C(=O)c1c(O)c3c(c(O)c1C2=O)C[C@@](O)(/C(CO)=N/NC(=O)CCCCC(=O)O[C@@H]1C[C@H](C)CC[C@H]1C(C)C)C[C@@H]3O[C@H]1C[C@H](N)[C@H](O)[C@H](C)O1.Cl`
Response line: 82%

Prompt line: So what does the record say about Activity for COc1cccc2c1C(=O)c1c(O)c3c(c(O)c1C2=O)C[C@@](O)(C(=O)CO)C[C@@H]3O[C@H]1C[C@H](N)[C@H](O)[C@H](C)O1.Cl [DOXORUBICIN HYDROCHLORIDE] ?
Response line: 98%

Kindly review the next compound as well.
Prompt line: // returns reported Activity for input `CC/C=C\C/C=C\C/C=C\CCCCCCCC(=O)N/N=C(\CO)[C@]1(O)Cc2c(O)c3c(c(O)c2[C@@H](O[C@H]2C[C@H](N)[C@H](O)[C@H](C)O2)C1)C(=O)c1c(OC)cccc1C3=O.Cl`
Response line: 120%

====

System: HL-60
Assay: Cytotoxicity against human HL60 cells after 72 hrs by MTT assay
Format: functional, cell-based
Conditions: HL-60, 72 h
Binary label based on IC50 with cut-off 300 nM: below gives Y, not below gives N.

Prompt line: I wonder whether COc1cccc2c1C(=O)c1c(O)c3c(c(O)c1C2=O)C[C@@](O)(C(=O)CO)C[C@@H]3O[C@H]1C[C@H](N)[C@H](O)[C@H](C)O1.Cl [DOXORUBICIN HYDROCHLORIDE] has IC50 below 300 nM. Can you tell?
Response line: Y

Prompt line: Below 300 nM on IC50? Entry `COc1cccc2c1C(=O)c1c(O)c3c(c(O)c1C2=O)C[C@@](O)(/C(CO)=N/NC(=O)CC(=O)O[C@@H]1C[C@H](C)CC[C@H]1C(C)C)C[C@@H]3O[C@H]1C[C@H](N)[C@H](O)[C@H](C)O1.Cl`
Response line: Y

Prompt line: Is IC50 strictly under 300 nM for the entry CCCCCCCCCCCCCCCCC(=O)N/N=C(\CO)[C@]1(O)Cc2c(O)c3c(c(O)c2[C@@H](O[C@H]2C[C@H](N)[C@H](O)[C@H](C)O2)C1)C(=O)c1c(OC)cccc1C3=O.Cl [DOXORUBICIN HEPTADECANOYL HYDRAZONE] ?
Response line: Y

Prompt line: Below 300 nM on IC50? Entry CCCCCCCC/C=C\CCCCCCCC(=O)N/N=C(\CO)[C@]1(O)Cc2c(O)c3c(c(O)c2[C@@H](O[C@H]2C[C@H](N)[C@H](O)[C@H](C)O2)C1)C(=O)c1c(OC)cccc1C3=O.Cl [DOXORUBICIN OLEYLHYDRAZONE HYDROCHLORIDE]
Response line: N

Now consider a different molecule.
Prompt line: Does this molecule meet the criterion IC50 < 300 nM? `COc1cccc2c1C(=O)c1c(O)c3c(c(O)c1C2=O)C[C@@](O)(/C(CO)=N/NC(=O)CCCCCCCC(=O)O[C@@H]1C[C@H](C)CC[C@H]1C(C)C)C[C@@H]3O[C@H]1C[C@H](N)[C@H](O)[C@H](C)O1.Cl`
Response line: N
